- TARGET: T1, cynomolgus tissue factor (cynomolgus TF, Sino Bio #90885-C08H) (cynomolgus monkey, UniProt P13726 33-251 (human entry))
- T1 construct: bought recombinant antigen; also called cyno TF
- T1 chain: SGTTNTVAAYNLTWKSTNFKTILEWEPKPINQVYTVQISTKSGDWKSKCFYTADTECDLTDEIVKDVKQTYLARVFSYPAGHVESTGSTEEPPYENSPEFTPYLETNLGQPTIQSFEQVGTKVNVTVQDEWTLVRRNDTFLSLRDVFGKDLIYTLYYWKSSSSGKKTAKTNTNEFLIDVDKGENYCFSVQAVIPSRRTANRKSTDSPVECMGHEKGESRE
- PROCEDURE_TEXT: Biacore SPR, single-point off-rate (100 nM antigen), antibody captured on anti-Fc
I'd be grateful if you could share measured koff for these entries.
One number for each entry, in s⁻¹.

SRP2901-D03 (antibody, V domains shown, humanized rabbit antibody, variable regions fused to human IGHG1 and IGKC; also called 2842-B01 HC3/LC1) VH: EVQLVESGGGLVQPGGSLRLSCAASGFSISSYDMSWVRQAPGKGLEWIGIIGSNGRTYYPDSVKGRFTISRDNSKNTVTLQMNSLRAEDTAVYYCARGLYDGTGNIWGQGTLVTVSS VL: DLQMTQSPSSLSASVGDRVTITCRASQSVYGNNWLSWYQQKPGKAPKLLIYGASKLASGVPSRFSGSGSGTQFTLTISSLQPEDFATYYCQGTYYSGDWYFAFGQGTKVEIK :: 0.00187

Return reported koff values for all items listed beneath this line.
1. SRP2901-F01 (antibody, V domains shown, humanized rabbit antibody, variable regions fused to human IGHG1 and IGKC; also called 2842-B01 HC1/LC3) VH: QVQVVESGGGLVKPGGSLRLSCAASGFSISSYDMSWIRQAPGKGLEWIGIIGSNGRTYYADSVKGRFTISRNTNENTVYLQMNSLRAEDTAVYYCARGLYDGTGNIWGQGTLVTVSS VL: DIQMTQSPSSLSASVGDRVTITCQASQSVYGNNWLSWYQQKPGKAPKLLIYGASKLASGVPSRFSGSGSGTDFTLTISSLQPEDFATYYCQGTYYSGDWYFAFGGGTKVEIK
2. 2842-B01 HC1/LC1 (antibody, V domains shown, humanized rabbit antibody, variable regions fused to human IGHG1 and IGKC) VH: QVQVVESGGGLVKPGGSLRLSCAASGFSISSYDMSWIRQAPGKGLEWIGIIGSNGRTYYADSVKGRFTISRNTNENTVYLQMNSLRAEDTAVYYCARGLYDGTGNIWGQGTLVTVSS VL: DLQMTQSPSSLSASVGDRVTITCRASQSVYGNNWLSWYQQKPGKAPKLLIYGASKLASGVPSRFSGSGSGTQFTLTISSLQPEDFATYYCQGTYYSGDWYFAFGQGTKVEIK

Marked response:
1. 0.00117
2. 0.00352
